test system: MS2 coat protein; assay: apparent KD of MS2 coat protein; higher = weaker reporter binding; conditions: Eterna round: R107; input ligand: none
Exercise: state measured apparent KD of MS2 coat protein for each of the sequences provided.
Give bare numbers, in µM.

These recorded examples may help you get a feel for the data.
>>> quantitativereadout("AACGUGAACGUGGUAUACCCGUGUGCCGAAGGAGCGCCCGAAAGGGCAGGUAGGUCGCGGACGACAUGAGGAUCACCCAUGUUUG")
0.0735
>>> quantitativereadout("UGUUUUGUGGGAAGGAGCGCAUACUUCACAUGAGGAUCACCCAUGUCAAGACGUGAGUCAGUGCAGGUAGGUCGCCUAGUUAAGA [Same State - Arginine B (Freestyle 16)]")
0.0704
>>> quantitativereadout("UAAUUUAUAGGGUAUAUCAGAUUAACUGAAGGAGCGUGGUAAUACACAGGUAGGUCGCAGAUGGAACAUGAGGAUCACCCAUGUU [JR_ExcArginiA_Sub016]")
0.02
>>> quantitativereadout("UAUCGUCAGACGGCCGCCACUAGAACAUGAGGAUCACCCAUGUACGGCCGCCCGGUGUGAUCCACUAGGACCGGGUCUGACGAAU [(Trp1)-(Ms2)-(T)'-(M)'-(Trp2)_Design23]")
0.0668

Hi, could you look up apparent KD of MS2 coat protein for each item in my list?
1. AGCAGCUCGAAAGAGUUGCACUCAUGUGAAGGAGCGCGCGUUAGCGCAGGUAGGUCGCACAUGAGGAUCACCCAUGUACCUUCUA [MAT - Exclusion Arginine A - Mod of Eli - D15]
2. CUAUAGAUAAGAAGGAGCGUCGAAAAUGGGUAAACAUGAGGAUCACCCAUGUAAAGGGAACGACAGGUAGGUCGCUUAUUUAUAG [AstromonsSSArgB#6]

output:
1. 0.173
2. 0.217

* * *

tested on: MS2 coat protein; experiment: apparent KD of MS2 coat protein; designed switch direction (-1 OFF switch, 1 ON switch): -1; higher = weaker reporter binding; conditions: input ligand: microRNA oligo, concentration not stated
I'd appreciate it if you could supply apparent KD of MS2 coat protein values for the items below.
Please answer using the number first and the unit second.

>>> result("AUGCUCCGUGUAGGAUAUCGCCGCACCACUCGGCGAGAAGGACAUGAGGAUCACCCAUGUAUGUUAUUAUCACGUGUGGCGCGC [Design 43] (Eterna round: R96, puzzle: Exclusion NG 1)")
"13 nM"

Would you mind listing apparent KD of MS2 coat protein for each of the following sequences?
1. UUUCUCUGGGCGUCUUCUUACAUGAGGAUCACCCAUGUUUCAUAGGAUAUGCUAUAGUGUUACAUGCAGAAGGAUGUUUGUUUU [JR_ExcNG3_Sub080] (Eterna round: R96, puzzle: Exclusion NG 3)
2. UUAAAACAUGUAGGAUAUGCGUAGAAAAGCUAUGCAGAAGGACAUGAGGAUCACCCAUGUUCAACCAUCAACGUACAGAUGGAA (Eterna round: R96, puzzle: Exclusion NG 1)
3. UUUGAUAGCACAGGAUAUUGUCAUUUGAGUUGUCAAGAAGGGUGUACAUGAGGAUCACCCAUGUAAUGGUUGCCUCGCUGACUU [JR_ExcNG1_Sub007] (Eterna round: R96, puzzle: Exclusion NG 1)
4. UACAUGAGGAUCACCCAUGUUUUGUCGUGUAUGGUAUUUAUCUAGGAUAUCGUUUUAUUUAACCACGAGAAGGAGAGUAUCAAU [MOD2 Solution 21 by JMF] (Eterna round: R96, puzzle: Exclusion NG 3)

output:
["189 nM", "12.1 nM", "105 nM", "33.9 nM"]

* * *

test system: MS2 coat protein; experiment: apparent KD of MS2 coat protein; higher = weaker reporter binding; details: Eterna round: R107; input ligand: theophylline 20 uM
Exercise: state measured apparent KD of MS2 coat protein for each of the sequences provided.
The reply should read as a number followed by its unit.

>>> result("GAUAUGAUAAGAAGGAGCGUCGAAAAUGGGUAAACAUGAGGAUCACCCAUGUAAAGGGAACGACAGGUAGGUCGCUUAUUAUAUC [AstromonsSSArgB#19]")
"190 nM"
>>> result("GCUAGGUCUACGGCCGCCACUAGACGUGGGUAAGACAUGAGGAUCACCCAUGUACUACAGGCGGAUAGGACCGGGUAGACCUAGC [SSTB NP+V+V2 #13 +-Same Structure]")
"159 nM"
>>> result("AGCAUGUUAUCAGAUACCAGACAUCUUUUAAUACAUAUUACAUGAGGAUCACCCAUGUUGGUCCCUUGGCAGCUGAAAUAUUUCA [JR_Nu_SSTheophyB_Sub023]")
"223 nM"

# return apparent KD of MS2 coat protein for each item in the list
1. ACGUCACGUUUACUCGUGGUUUCGUUCGAUACCAGUAGCGAGAGUUACCCUUGGCAGCGACAUGAGGAUCACCCAUGUACGAAGA [XTheo A #24]
2. GCCUCAUGUAGAAGGAGCGUCAGAAGCUACAGACAUGAGGAUCACCCAUGUUAGUUGAUCUGACAGGUAGGUCGCUACAGCAGGA [Arg B SS t7]
3. AAUAACAUGAGGAUCACCCAUGUAAAAGAUACCAGAUGCAUGAUGAUCCCUUGGCAGCUUAACGCUGAUUGAUUACAAUCAGCGA

output:
1: 15 nM; 2: 44.9 nM; 3: 128 nM

* * *

system: MS2 coat protein; experiment: apparent KD of MS2 coat protein; designed switch direction (-1 OFF switch, 1 ON switch): 1; higher = weaker reporter binding; conditions: input ligand: none
measurementLabel: apparent KD of MS2 coat protein

Before answering, review these 4 worked examples.
>>> result("UUUACUUUCAUAGGAUAUCAUGCGAAAAUUGCGUGAGAAGGGUGAAUACUGUCUUUCUAAGAGUACAUGAGGAUCACCCAUGUA [SameState NG1 #64] (Eterna round: R96, puzzle: Same State NG 1)")
"51.2 nM"
>>> result("CUGAAAUGUCAAGGAUAUCACGUCGAUUAGACGUGAGAAGGUGAUCUGCACAUGAGGAUCACCCAUGUGUUACAUGGAAUUCAG [Brourd's SSNG1/1-A2 mod 13] (Eterna round: R96, puzzle: Same State NG 1)")
"503 nM"
>>> result("UUUUUGUUCCGAGGAUAUCCUUUUUUCUUACAUGAGGAUCACCCAUGUAAAGGGAUUGAGUUGUAGGAGAAGGCGGUUUUGUUU [JR_SSNG2_Sub061] (Eterna round: R96, puzzle: Same State NG 2)")
"26.2 nM"
>>> result("UAAUUAAGUCAAGGAUAUCACGUCGAAUAGACGUGAGAAGGUGACCAAUACAUGAGGAUCACCCAUGUAAUACAUGAAUAAUUA [SSNG1/12-B1] (Eterna round: R96, puzzle: Same State NG 1)")
"45.9 nM"

input: Fill in the blank: the reported apparent KD of MS2 coat protein of GGACGAGACGCAGGAUAUGCGAAGAAGAAGGAAGCAGAAGGGCGUGUGGGACGACAUGAGGAUCACCCAUGUUCUCUGCGAGGA [ssng1 b] (Eterna round: R96, puzzle: Same State NG 1) is ____.
output: 331 nM

* * *

system: MS2 coat protein; assay: apparent KD of MS2 coat protein; designed switch direction (-1 OFF switch, 1 ON switch): -1; higher = weaker reporter binding; details: input ligand: none
So I've got a bunch of sequences here, and I need their apparent KD of MS2 coat protein values.
Answers are plain numbers, in nM.

>>> quantitativereadout("AACAUGUAAGGAUAUAAAAGAAGGAGUACAAAGCCCUCCUAUUAGAAGGUACAUGAGGAUCACCCAUGUGGCGG [Eternabot (L2) Solution 96] (Eterna round: R97, puzzle: Exclusion 4)")
57.1
>>> quantitativereadout("ACCUACCAGCUAGGAUAUGCAGUACAGUAAAAUGUAGAAGGAGCACGAUCCAGACAUGAGGAUCACCCAUGUGGGCGGUAGGCA [Errage] (Eterna round: R96, puzzle: Exclusion NG 1)")
16.9

Please examine the following record next.
input: Using the record for GAGUGCUGAGGAUAUACAUGAGGAUCACCCAUGUGCUUCAGCUAGGAGACUAGCAUUGGUAGAAGGCAGUACUC [Mod of lroppy - Jieux - Exclusion 3] (Eterna round: R97, puzzle: Exclusion 3) , report its apparent KD of MS2 coat protein.
output: 12.4

* * *

test system: K4 kissing-loop RNA reporter; experiment: apparent KD of K4 kissing-loop reporter; higher = weaker reporter binding; conditions: Eterna round: R107; input ligand: none;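 note: bound reporter read as fluorescence of individual clusters on recovered sequencing chips by microscopy, with normalized cluster intensities fitted with a binding model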
measurementLabel: apparent KD of K4 kissing-loop reporter
A bare number is not enough; add the unit after it.

Solved entries:
>>> result("UAAGAUAUAAGGGAUACCAGCCAUAAGGAAAGUGUGAUGAGUGAUGUUCUGACAAGCCAAGGCCCUUGGCAGCUUUAAUAGCAUC [Theophylline B Same State; Euphoria Solution]")
"471 nM"
>>> result("AUUUGUUUAUGUGAUACCAGACUUUGCAGUGAUGUUGCAUUUAUUUUAGAAUAUAAUUUAGUCCCUUGGCAGCACUAUGUAUUUA [JR_SSTheophyB_Sub008]")
"73.8 nM"
>>> result("CGCCGUAAGGCGGUCGCUCCCACUCCGGAAGGAGCGCCCGUAAGGGCAGGUAGGUCGCCGGAGUGAUGUUCCGGUGGAGGGACCG [#2 Exclusion - Arginine A Attempt #8 (Inspired by Omei)]")
"339 nM"

Kindly give each listed record's apparent KD of K4 kissing-loop reporter.
1. UGUCAUUGGUCGGCCGCCACUUCAUAAAGAGUGAUGUUCUAAAAGACGGAUCGAAAGAUCUGUCGAAGGACCGGGACCGAUGACU [TrypBS 18 #SwitchBubble #StaticStem]
2. CCUAUCUCAUACGAUACCAGUCCGAGUGAUGUUCGAAAAUAAAUAAAUUUGCCAUAUAAUGACCCUUGGCAGCGUAUGGGAUAGG [Ex Theophylline B K4 11]

output:
1200 nM
351 nM
